The origin of these recorded values is ChEMBL document CHEMBL2163264.

target: Luciferin 4-monooxygenase (Photinus pyralis); experiment: Mixed-type inhibition of Photinus pyralis luciferase using D-luciferin as substrate after 20 mins by Michaelis-Menten plot
Sequence (P08659 whole entry): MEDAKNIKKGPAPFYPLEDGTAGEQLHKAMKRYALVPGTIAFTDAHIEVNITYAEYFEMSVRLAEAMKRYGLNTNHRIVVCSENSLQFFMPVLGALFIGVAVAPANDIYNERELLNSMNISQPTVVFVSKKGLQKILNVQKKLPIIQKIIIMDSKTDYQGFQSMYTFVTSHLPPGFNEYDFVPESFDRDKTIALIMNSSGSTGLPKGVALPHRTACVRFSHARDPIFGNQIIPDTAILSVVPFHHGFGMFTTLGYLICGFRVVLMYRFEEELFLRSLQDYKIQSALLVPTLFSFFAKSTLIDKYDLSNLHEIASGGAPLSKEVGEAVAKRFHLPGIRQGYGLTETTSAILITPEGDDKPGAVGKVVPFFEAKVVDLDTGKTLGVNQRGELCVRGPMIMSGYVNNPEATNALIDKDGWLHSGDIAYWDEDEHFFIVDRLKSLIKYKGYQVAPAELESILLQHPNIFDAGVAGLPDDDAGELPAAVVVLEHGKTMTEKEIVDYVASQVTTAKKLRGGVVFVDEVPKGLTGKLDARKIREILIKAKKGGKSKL
measurement-kind: Ki (nM)
Could you give me the number in nM? Just the number is fine.

Exercise: Which Ki reading was recorded for the compound CC(C)n1ccc2c(Oc3ccc(N)cc3)ncnc21 ?
Solution: 220

====

biological target: Luciferin 4-monooxygenase (Photinus pyralis); test: Mixed-type inhibition of Photinus pyralis luciferase using D-luciferin as substrate at 10 uM after 20 mins by bioluminescence assay
Respond with Condition met for inhibition values of 30% and above, Condition not met for values below.

Consider the worked cases shown below.
>>> df
                         structure_notation  assigned_category
0      CCOC(=O)Cn1ccc2c(Oc3ccc(N)cc3)ncnc21      Condition met
1  CC(C)n1ccc2c(Oc3ccc(N)cc3)nc(S(C)(=O)=O)nc21  Condition not met
2        Nc1ccc(Oc2ncnc3c2ccn3Cc2ccccc2)cc1      Condition met
3  COc1ccc(Cn2ccc3c(Oc4ccc(N)cc4)ncnc32)cc1  Condition not met
4      CSc1nc(Oc2ccc(N)cc2)c2ccn(C(C)C)c2n1      Condition met
5  Nc1ccc(Oc2ncnc3c2ccn3Cc2ccc(C(F)(F)F)cc2)cc1  Condition not met
6        NC(=O)Cn1ccc2c(Oc3ccc(N)cc3)ncnc21  Condition not met
7              Nc1ccc(Oc2ncnc3[nH]ccc23)cc1  Condition not met

Exercise: Say whether Cn1ccc2c(Oc3ccc(N)cc3)ncnc21 shows inhibition of 30% or more.
Solution: Condition met
